Just for reference, PubChem BioAssay (NCI) is where these values come from.

Test system: MDA-MB-468 breast
PROTOCOL: NCI-60 one-dose screen, 48 h
TEST_CONTEXT: 10 µM unless noted
This is part of a sample that, as a whole, favours compounds with a hit. Of some 83,000 tested, about 20% had one in any assay. The source made the active and inactive calls. Rule for the calls: active = growth percent below 10; inactive = the rest.
Labels: active, inactive

MOLECULE	GROUP_LABEL
Cc1ccc(C(=O)c2sc3nc4c(cc3c2N)CCCC4)c(C)c1	inactive
COCCOCCOCc1n(Cc2ccc3ccccc3n2)c2ccccc2[n+]1Cc1ccc2ccccc2n1	active
COc1cccc2c1-c1ccccc1C2=O	inactive
CC(C)CSc1oc(-c2ccccc2)nc1S(=O)(=O)c1ccccc1	inactive
O=C1CCNC1	inactive
O=[N+]([O-])c1ccc(N/N=C/c2c(O)ccc3ccccc23)nc1	inactive
CCc1c2c(nc3ccc(OCc4ccc(B(O)O)cc4)cc13)-c1cc3c(c(=O)n1C2)COC(=O)[C@]3(O)CC	active
COc1ccc(Cn2c(SC)nc(=O)n(Cc3ccc(Cl)cc3)c2=O)cc1	inactive
O=C1C(Cl)=C(NCCCN(CCCNC2=C(Cl)C(=O)c3ccccc3C2=O)C2=C(Cl)C(=O)c3ccccc3C2=O)C(=O)c2ccccc21	active
COc1ccc(-n2nc(C(=O)Nc3ccc(F)cc3)nc2-c2cc(OC)c(OC)c(OC)c2)cc1	inactive
COC(=O)c1n[nH]c2ccc3nc(-c4cn[nH]c4C(F)(F)F)c4c(c3c12)CCCC4	inactive
COc1ccc2nc3ccccc3c(NCc3ccc(F)cc3)c2c1	active
C=C1C(=O)O[C@H]2[C@H]1CC/C(COC(=O)c1ccc(Br)cc1)=C\CC[C@@]1(C)O[C@@H]21	active
C=C(C)[C@@H]1CC[C@]2(C(=O)NCCNCCNC(=O)OC(C)(C)C)CC[C@]3(C)[C@H](CC[C@@H]4[C@@]5(C)CCC(=O)C(C)(C)[C@@H]5CC[C@]43C)[C@@H]12	inactive
O=C1c2cc3c(cc2-c2c1c1ccc(Cl)cc1c(=O)n2C[C@H](O)CO)OCO3	active
Cn1c(=O)cc(NC(=O)CN2CCN(c3cc4c(cc3F)c(=O)c(C(=O)O)cn4C3CC3)CC2)[nH]c1=O	inactive
CCCCCCCCCCCCCC	inactive
COc1cc2c(c(OC)c1OC)C(=O)CC(c1cccc(NC(=O)c3ccc(C#N)cc3)c1)O2 (stereo unspecified)	inactive
COC(=O)c1nc(-c2ccccc2)oc1S(=O)(=O)N(C)CCO	active
CN1CCN(c2ccc(Nc3nc(NCCNC(=O)c4ccc(F)cc4)c4sccc4n3)cc2)CC1	inactive
C=C(C)[C@@H]1CC[C@]2(N=C=O)CC[C@]3(C)[C@H](CC[C@@H]4[C@@]5(C)Cc6c([nH]c7ccccc67)C(C)(C)[C@@H]5CC[C@]43C)[C@@H]12	inactive
COc1cc(-c2nc(-c3nnc(-c4ccccc4Cl)o3)c3ccccn23)cc(OC)c1OC	inactive
c1ccc(Cn2cc(-c3nc4ccccc4s3)c3cccnc32)cc1	inactive
C=C1c2c(C)nn(-c3ccc(NC(C)=O)cc3)c2N(C)C23CC1C1(C)c4c(C)nn(-c5ccc(NC(C)=O)cc5)c4N(C)C(C)(CC12)C3 (stereo unspecified)	inactive
Cc1cn(-c2cc(NC(=O)c3cncc(C#Cc4cnc5ccc(O[C@H]6CCOC6)nn45)c3)cc(C(F)(F)F)c2)cn1	inactive
CCC(=O)Nc1nnc(Cc2ccc(OC)c(OC)c2)s1	active
COc1ccc(Nc2nc(N)nc3c2CCc2occc2-3)cc1	inactive
CCOC(=O)C1=C(C)NC(=O)NC1c1cc(=O)oc2ccc(C)cc12 (stereo unspecified)	inactive
CCOC(=O)C1=C(N)Oc2c(sc3c(F)cccc23)C1c1ccc(O)cc1 (stereo unspecified)	inactive
NC(N)=N/N=C(/c1ccccc1)c1ccc(N)cc1	inactive
COc1cccc(CNc2c3ccccc3nc3ccccc23)c1	inactive

###

Tested on: MDA-MB-468 breast
PROTOCOL: NCI-60 one-dose screen, 48 h
TEST_CONTEXT: 10 µM unless noted
Compounds without any hit were thinned out: in the full panel of roughly 83,000, 20% have a hit. Calls of active or inactive are those of the source. How the source made its calls: active means growth percent below 10; inactive means the rest.
Outcomes: Yes = active, No = inactive

MOLECULE	TARGET_DESC	GROUP_LABEL
CC1(C)N=C(N)N=C(N)N1c1cc(Cl)ccc1Cl	MDA-MB-468 breast	No
O=C(c1ccc(O)c(C(=O)N2Cc3ccc(OCCC[P+](c4ccccc4)(c4ccccc4)c4ccccc4)cc3C2)c1)N1Cc2cccc(F)c2C1	MDA-MB-468 breast	Yes
CC(C)=NNc1ccccn1	MDA-MB-468 breast	No
CCn1cc(C2=C(c3cn(C)c4ncccc34)C(=O)NC2=O)c2cccnc21	MDA-MB-468 breast	No
Cc1ccc2[nH]c(=O)c3c(c2c1)OC(N)=C(C#N)C31C(=O)c2cccc3cccc1c23 (stereo unspecified)	MDA-MB-468 breast	No
CC(C)(C)CC(C)(C)n1nnnc1C(Nc1ccccc1)c1cc2cccc3ccc4cccc1c4c32 (stereo unspecified)	MDA-MB-468 breast	No
COc1ccc2c3c(ccc2c1)C(=O)/C(=C\O)CC3	MDA-MB-468 breast	No
O=[N+]([O-])c1ccccc1NC1c2ccccc2Oc2ccccc21	MDA-MB-468 breast	No
FC(F)(F)c1ccc(CNc2ccc(Cc3c[nH]c4ncc(Cl)cc34)cn2)cn1	MDA-MB-468 breast	Yes
CNC(=S)NNC(=O)C1CC1	MDA-MB-468 breast	No
Cc1cc(C)nc(NS(=O)(=O)c2ccc(Nc3ccc4c5c(n(CCCN(C)C)c(=O)c4c3)-c3ccccc3C5=O)cc2)n1	MDA-MB-468 breast	No
COc1ccc(CCN2CCCN3C2=Nc2ccccc2S3(=O)=O)cc1	MDA-MB-468 breast	Yes
O=C1c2ccccc2C(=O)c2c(N=Nc3[nH]c(=S)[nH]c3O)cccc21	MDA-MB-468 breast	Yes
Cc1cccc(N=Nc2cccc(C)c2)c1	MDA-MB-468 breast	No
COc1cc(-c2nc(SCCC(C)C)nc(Nc3ccccc3Cl)c2C#N)cc(OC)c1OC	MDA-MB-468 breast	No
O=c1nc2c(-c3nc4ccccc4s3)n[nH]n2c2sc3c(c12)CCCC3	MDA-MB-468 breast	No

###

System: MDA-MB-468 breast
PROTOCOL: NCI-60 one-dose screen, 48 h (100 = growth as untreated, 0 = no growth, -100 = all killed)
TEST_CONTEXT: 10 µM unless noted
About 83,000 compounds went through this panel and 20% of them were active in at least one assay; those are over-represented in the sample as a whole.
Known growth of a selection of compounds
REPORTED_METRIC: growth (%)

COMPOUND	MEAS_VALUE
O=C(NOC[C@H](O)CO)c1ccc(F)c(F)c1Nc1ccc(I)cc1F	106
CCc1ccc(Oc2c(-c3ccc(OCCc4cccc(C(F)(F)F)c4)cc3O)n[nH]c2C(F)(F)F)cc1	22.5
CN(C)c1ccc(S(=O)(=O)O)cc1	106
O[C@@H]1Cc2ccc3ccccc3c2N[C@H](c2ccoc2)C1	79.4
COc1ccc(C(=O)/C=C/c2cccc(Nc3ccnc4cc(Cl)ccc34)c2)cc1	-2.59
COc1cc(C2C3=C(COC3=O)N(CCO)c3cc4c(cc32)OCCO4)cc(OC)c1OC (stereo unspecified)	-64.5
COc1ccc(/C=C/C(c2cc(OC)c(OC)c(OC)c2)n2cncn2)cc1 (stereo unspecified)	40.9
O=C(/C=C/Nc1ccc(S(=O)(=O)Nc2ncccn2)cc1)c1ccc(N=Cc2c(O)[nH]c3ccccc23)cc1	109
CCCCN1C(=O)/C(=c2\sc3n(c2=O)C2C(NN=3)N(CC)C(=O)N2CC)c2cc(C)ccc21 (stereo unspecified)	65.4
O=C(Nc1cccc(-n2cc(-c3ccncc3)c(-c3ccc(Cl)c(O)c3)n2)c1)c1ccc(N2CCOCC2)c(C(F)(F)F)c1	66
COc1cc(/C=N/Nc2ncnc3c2c(C)nn3-c2ccc(F)cc2)ccc1O	92
COc1ccc2cc(Cn3cc[n+](Cc4ccc5ccccc5c4)c3)ccc2c1	-22.9
COc1ccc(Cn2cc(C(=O)N=Nc3c(O)[nH]c4c(Cl)cccc34)nn2)cc1	98.6
Cc1nc2sc(C(=O)Nc3cccc(Cl)c3C)c(N)c2cc1C(C)O (stereo unspecified)	25.4
Clc1nn2c(Cn3cnc4c(NCc5ccccc5)ncnc43)nnc2c2ccccc12	35.3
Cc1ccc(S(=O)(=O)N/N=C2\CCCc3ccccc32)cc1	95.7
COc1cc(N=Nc2cc(Cc3ccc(N(C)C)cc3)c(N)cc2N(C)C)c2ncccc2c1	-54.8
CCOC(=O)c1c[nH]c2cc(OCC3CC3)c(OCC3CC3)cc2c1=O	107
O=C1NC(=S)N[C@H]1CC(=O)n1cnc2ccccc21	86.3
COC(=O)c1nc(-c2ccccc2)oc1S(=O)(=O)N1CCN(c2ccc(OC)cc2)CC1	22.6
COc1ccccc1/C=C/C(=O)c1nnn(-c2ccc(C(=O)O)cc2)c1C	74.5
O=C(Nc1cccc(-c2ccc(Cl)c(C(F)(F)F)c2)c1)C1CCN(Cc2cccc3cccnc23)CC1	-5.03
CC1=C(NCCN2CCCC2)C(=O)c2c(OCc3ccc(F)c(Cl)c3)cccc2C1=O	67.1
Clc1ccc(Nc2scc3[n+]2CCC3)cc1	86.3
O=[N+]([O-])c1ccccc1NCSc1ccc(Cl)cc1	92.1
COC(=O)[C@H]1CCCN1C(=O)[C@H]1CCCN1C(=O)[C@@H](Cc1c[nH]c2ccccc12)NC(=S)Nc1cc(C(F)(F)F)cc(C(F)(F)F)c1	21
CN1CCN(C(=O)OCc2nc3c(N4CCOCC4)nc(-c4ccccc4)nc3n2C)CC1	-59
COc1cc2c(cc1O)CC[C@@H]1[C@@H]2CC[C@]2(C)[C@@H](OCCCN(C)C)CC[C@@H]12	-58.5
Cn1c2ccccc2c2c3c(c4c5cccnc5[nH]c4c21)C(=O)N(O)C3=O	0.0154
COc1ccc(Cn2c(Br)c3c(c2-c2cc(OC)c(OC)c(OC)c2)CCc2sc(NC(=O)c4ccc(OC)cc4)nc2-3)cc1	98.8
COc1cc(/C=C(\C#N)C(=O)c2ccccc2)ccc1OCc1ccccc1	96.4
